system: Mycolicibacterium smegmatis; assay: Antimycobacterial activity against 6-weeks nutrient starved phase cultures of Mycobacterium smegmatis ATCC 14468 treated for 7 days measured after 4 weeks by agar dilution method; format: functional
Reported MIC values follow for various compounds
readoutLabel: MIC

smilesStructure: CCCN(CCC)C(=O)CC[N+](=O)[O-]
readoutLabel: MIC
observedValue: > 247 µM
//
smilesStructure: O=C(CC[N+](=O)[O-])N1CCN(c2ccccc2)CC1
readoutLabel: MIC
observedValue: > 190 µM
//
smilesStructure: O=C(CC[N+](=O)[O-])N(Cc1ccccc1)Cc1ccccc1
readoutLabel: MIC
observedValue: > 168 µM
//
smilesStructure: Cc1ccnc(NC(=O)CC[N+](=O)[O-])c1
readoutLabel: MIC
observedValue: 239 µM
//
smilesStructure: Cc1cc(NC(=O)CC[N+](=O)[O-])ccc1Br
readoutLabel: MIC
observedValue: 43.5 µM
//
smilesStructure: O=C(CC[N+](=O)[O-])Nc1ccc(Br)cc1
readoutLabel: MIC
observedValue: 91.5 µM
//
smilesStructure: O=C(CC[N+](=O)[O-])N1CCN(c2cccc(C(F)(F)F)c2)CC1
readoutLabel: MIC
observedValue: 75.5 µM
//
smilesStructure: O=C(O)c1cn(C2CC2)c2cc(N3CCNCC3)c(F)cc2c1=O
readoutLabel: MIC
observedValue: 2.35 µM
//
smilesStructure: O=C(O)c1cn(C2CC2)c2cc(N3CCN(C(=O)CC[N+](=O)[O-])CC3)c(F)cc2c1=O
readoutLabel: MIC
observedValue: 0.09 µM
//
smilesStructure: O=C(CC[N+](=O)[O-])Nc1ccc(Cl)cc1
readoutLabel: MIC
observedValue: 13.7 µM
//
smilesStructure: Cc1ccc(NC(=O)CC[N+](=O)[O-])c(C)c1
readoutLabel: MIC
observedValue: > 225 µM

* * *

tested on: Mycolicibacterium smegmatis; test: Antimycobacterial activity against active log phase Mycobacterium smegmatis ATCC 14468 by agar dilution method; assay type: functional
readoutLabel: log10(MIC) (log10 of the value in µM)

compound: O=C(CC[N+](=O)[O-])Nc1ccc(Cl)cc1
log10(MIC): 1.74

compound: CCN1CCN(C(=O)CC[N+](=O)[O-])CC1
log10(MIC): 1.76

compound: O=C(CC[N+](=O)[O-])N(Cc1ccccc1)Cc1ccccc1
log10(MIC): 2.23

compound: CCn1cc(C(=O)O)c(=O)c2cc(F)c(N3CCN(C(=O)CC[N+](=O)[O-])CC3C)c(F)c21 (stereo unspecified)
log10(MIC): 0.84

compound: O=C(CC[N+](=O)[O-])Nc1ccc(F)cc1
log10(MIC): 2.07

compound: O=C(CC[N+](=O)[O-])N1CCN(c2ccccc2)CC1
log10(MIC): 2.28

compound: COc1ccc(NC(=O)CC[N+](=O)[O-])cc1
log10(MIC): 2.05

compound: COc1c(N2C(C)CN(C(=O)CC[N+](=O)[O-])CC2C)c(F)cc2c(=O)c(C(=O)O)cn(C3CC3)c12 (stereo unspecified)
log10(MIC): -1.10

compound: NNC(=O)c1ccncc1
log10(MIC): 1.66

* * *

Reported MIC values follow for various compounds
system: Mycolicibacterium smegmatis; experiment: Antimycobacterial activity against active log phase Mycobacterium smegmatis ATCC 14468 by agar dilution method; type: functional
readoutLabel: MIC (µM)

smilesStructure: Cc1ccnc(NC(=O)CC[N+](=O)[O-])c1
censoringOperator: >
observedValue: 239

smilesStructure: O=C(O)CC[N+](=O)[O-]
censoringOperator: >
observedValue: 420

smilesStructure: Cc1ccc(NC(=O)CC[N+](=O)[O-])cc1
censoringOperator: =
observedValue: 120

smilesStructure: O=C(O)c1cn(C2CC2)c2cc(N3CCN(C(=O)CC[N+](=O)[O-])CC3)c(F)cc2c1=O
censoringOperator: =
observedValue: 0.09

smilesStructure: Cc1cc(NC(=O)CC[N+](=O)[O-])ccc1Br
censoringOperator: =
observedValue: 87.1
